- testedOn: UniProt P07288
- Sequence (P07288 25-261): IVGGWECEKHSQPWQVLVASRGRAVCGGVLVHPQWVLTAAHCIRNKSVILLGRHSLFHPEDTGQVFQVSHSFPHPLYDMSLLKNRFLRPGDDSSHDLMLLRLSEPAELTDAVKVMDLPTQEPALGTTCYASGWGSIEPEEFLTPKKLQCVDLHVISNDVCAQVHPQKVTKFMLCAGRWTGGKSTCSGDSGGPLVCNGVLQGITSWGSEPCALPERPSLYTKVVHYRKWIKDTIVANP
- experimentalDetails: Kinetic parameters of fluorescent (AMC) PSA peptide substrates, Lineweaver Burke plots
- Type: biochemical
- testContext: PSA 10 μg/ml; AMC-coupled peptide
*1 amine or outer side, *2 acyl side, *3 side chain or, on linkers, in order; H or OH if unused. Where a SMILES comes first, the peptide text is derived from it. [ ]: non-standard residue; d: D form. The star is where a group is joined. AMC = Cc1cc(=O)oc2cc(N*)ccc12; Morpholide = C1CN(*)CCO1; CO = O=C([*:1])[*:2]
# note: boundary value 0.09 s⁻¹ maps to 0.0; kcat below it maps to 1.0

Completed entries (count: 3):
compound	testedOn	discreteLabel
CC(=O)NCC(=O)N[C@@H](CO)C(=O)N[C@@H](CO)C(=O)N[C@@H](CCCCN)C(=O)N[C@@H](Cc1ccccc1)C(=O)N[C@@H](CCC(N)=O)C(=O)Nc1ccc2c(C)cc(=O)oc2c1 [Ac-GSSKFQ-AMC] (Ac-GSSKFQ-{AMC})	UniProt P07288	1.0
CC(=O)NCC(=O)N[C@@H](CO)C(=O)N[C@@H](CO)C(=O)N[C@@H](CCCCN)C(=O)N[C@@H](Cc1ccc(O)cc1)C(=O)N[C@@H](CCC(N)=O)C(=O)Nc1ccc2c(C)cc(=O)oc2c1 [Ac-GSSKYQ-AMC] (Ac-GSSKYQ-{AMC})	UniProt P07288	0.0
CC(=O)NCC(=O)N[C@H](CO)C(=O)N[C@@H](C)C(=O)N[C@@H](CCCCN)C(=O)N[C@@H](Cc1ccc(O)cc1)C(=O)N[C@@H](CCC(N)=O)C(=O)Nc1ccc2c(C)cc(=O)oc2c1 [Ac-GsAKYQ-AMC] (Ac-G[dS]AKYQ-{AMC})	UniProt P07288	0.0

Next item in the queue.
Task: is_below(kcat, 0.09 s⁻¹) for Cc1cc(=O)oc2cc(NC(=O)[C@H](CCC(N)=O)NC(=O)[C@H](CC(C)C)NC(=O)[C@H](CCCCN)NC(=O)[C@H](CO)NC(=O)[C@H](CO)NC(=O)[C@H](Cc3c[nH]cn3)NC(=O)N3CCOCC3)ccc12 [Mu-HSSKLQ-AMC, reference compound] ({Morpholide-CO}-HSSKLQ-{AMC}) ?
Output: 1.0
